target: T1, HLA-A*02:01 (peptide-receptive MHC class I monomer after UV cleavage of the UV-sensitive ligand) (human); test: UV ligand-exchange ELISA; exchange yield grade (+ >=10%, ++ >=20%, +++ >=50%, ++++ >=75%)
T1 construct: MHC monomers loaded by UV-ligand exchange and captured on streptavidin plates
Field: peptide exchange yield. Provide a value for each of the binders that follow.

binder: FLIDLNSTHGTFL [FLIDLNSTHGTFL (SEQ ID NO: 277)]
peptide exchange yield: 50 to 75%

Please state, for each entry, its recorded peptide exchange yield.
1. VLATILAQL [VLATILAQL (SEQ ID NO: 117)]
2. FLLPVAVKL [FLLPVAVKL (SEQ ID NO: 307)]
3. TVLDGLEFKV [TVLDGLEFKV (SEQ ID NO: 259)]

Reply:
1: ≥ 75%; 2: 50 to 75%; 3: ≥ 75%
